The values you see were collected from ChEMBL document CHEMBL1667818.

Give Cmax for every item shown.
# assay_explanation: Cmax in Wistar rat at 10 mg/kg, po
# Type: ADME, organism-based
# Design: dose 10 mg/kg, route oral
# study_conditions: in vivo
One number for each entry, in µg/mL.

- smiles_representation: "O=C(N[C@@H]1CCC[C@H](O)C1)c1noc(-c2ccc(F)c(F)c2)c1Cl"
  meas_value: 0.408

q: What does the data say about its Cmax? Entry: O=C(N[C@@H]1CCC[C@H](O)C1)c1noc(-c2ccc(C(F)(F)F)cc2)c1Cl
a: 3.21

###

Give measured solubility for each item. Keep answers brief.
# assay_explanation: Aqueous solubility of the compound at pH 7.4
# Format: physicochemical
One number for each entry, in µg/mL.

Example entries begin here.
- compound: "O=C(NC1CCCCC1)c1noc(-c2ccc(C(F)(F)F)cc2)c1Cl"
  solubility / µg/mL: 1
- compound: "O=C(N[C@H]1CCC[C@H](O)C1)c1noc(-c2ccc(C(F)(F)F)cc2)c1Cl (racemic)"
  solubility / µg/mL: 1
- compound: "O=C(NCCCCO)c1noc(-c2ccc(C(F)(F)F)cc2)c1Cl"
  solubility / µg/mL: 5
- compound: "O=C(N[C@@H]1CCC[C@H](O)C1)c1noc(-c2ccc(C(F)(F)F)cc2)c1Cl"
  solubility / µg/mL: 2

Kindly review the next compound as well.
q: Would you mind telling me what solubility value was observed for O=C(N[C@@H]1CC[C@H](O)C1)c1noc(-c2ccc(C(F)(F)F)cc2)c1Cl ?
a: 5
